Consider the following compounds; for each one, report its EC50.
Molecular target: ExsA (Pseudomonas aeruginosa)
Sequence (P26993 whole entry): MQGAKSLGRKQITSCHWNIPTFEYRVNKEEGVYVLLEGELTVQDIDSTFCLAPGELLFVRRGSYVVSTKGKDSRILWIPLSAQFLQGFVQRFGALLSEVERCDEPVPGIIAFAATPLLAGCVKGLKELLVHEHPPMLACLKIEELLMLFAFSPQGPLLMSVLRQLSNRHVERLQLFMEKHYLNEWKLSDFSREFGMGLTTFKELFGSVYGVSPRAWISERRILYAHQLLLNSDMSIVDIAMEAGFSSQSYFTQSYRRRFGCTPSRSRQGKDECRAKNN
Test: Chemiluminescence DNA binding assay, ExsA
Parameters: species or system P. aeruginosa
Answers are plain numbers, in µM.

Data request, read-out EC50, for O=C(Nc1ccc(-c2nc3ccc([N+](=O)[O-])cc3n2O)cc1)c1cccc(Cl)c1
2.5

Below are some compounds; for each one, tell me its EC50.
1. Cc1ccc(C(=O)Nc2ccc(-c3nc4ccc([N+](=O)[O-])cc4n3O)cc2)cc1
2. O=[N+]([O-])c1ccc2nc(-c3ccc(-c4ccccc4)o3)n(O)c2c1
3. CN(C)c1ccc(C(=O)Nc2ccc(-c3nc4ccc([N+](=O)[O-])cc4n3O)cc2)cc1 [ATE]
4. O=C(Nc1ccc(-c2nc3ccc([N+](=O)[O-])cc3n2O)cc1)c1ccc(F)cc1

[4, 15.6, 1.9, 4]

* * *

Biological target: MarA (Escherichia coli, UniProt P0ACH5)
Sequence (P0ACH5 whole entry, looked up): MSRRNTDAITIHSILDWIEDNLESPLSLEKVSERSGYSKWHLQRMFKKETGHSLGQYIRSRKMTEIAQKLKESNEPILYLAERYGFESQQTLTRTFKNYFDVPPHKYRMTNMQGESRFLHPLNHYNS
Assay: Selective marker (ccdB) under MarA-activated promoter; cell survival under MarA expression (Example 2)
Assay type: cell-based
Set-up: key: *: good inhibition of MarA; **: very good inhibition of MarA
Conditions: inhibition of MarA; cell survival under conditions of MarA expression
PROPERTY MEASURED: MarA inhibition score (cell survival)

So what's the measured MarA inhibition score (cell survival) for this one? O=C(O)COn1c(-c2ccccc2)nc2ccc([N+](=O)[O-])cc21 [AH]
**

Now try CN(C)c1ccc(-c2cc(=O)c3ccccc3o2)cc1 .
**

And CCCSc1nnc2c(n1)OC(c1ccc(OC)cc1)Nc1ccccc1-2 (stereo not drawn) ?
*

What about CCCSc1nnc2c(n1)OC(c1ccc(OCc3ccccc3)cc1)Nc1ccccc1-2 (stereo not drawn) ?
**

Next record, please: O=C1C(=C2NC(c3ccccn3)C3C(=O)N(c4ccccc4)C(=O)C23)C(=O)c2ccccc21 (stereo not drawn) [AF]
**

Okay, and O=C1C(=C2NC(c3ccccn3)C3C(=O)N(c4ccccc4)C(=O)C23)C(=O)c2ccccc21 (stereo not drawn) [BB] ?
*

Similarly, CCOC(=O)C1=C(C)N=c2s/c(=C\c3ccc(-c4cccc(C(=O)O)c4)o3)c(=O)n2C1c1ccc(N(C)C)cc1 (stereo not drawn) ?
**

Item: Cc1ccc(-c2nc3c(=O)n(-c4ccccc4)c4c(c(=O)n(C)c(=O)n4C)c3o2)cc1
*

New cases:
Reported MarA inhibition score (cell survival) for Cn1c(=O)c2c3oc(-c4ccc([N+](=O)[O-])cc4)nc3c(=O)n(-c3ccccc3)c2n(C)c1=O : what is it?
**

* * *

Target: SoxS (Escherichia coli, UniProt P0A9E2)
Sequence (P0A9E2 whole entry): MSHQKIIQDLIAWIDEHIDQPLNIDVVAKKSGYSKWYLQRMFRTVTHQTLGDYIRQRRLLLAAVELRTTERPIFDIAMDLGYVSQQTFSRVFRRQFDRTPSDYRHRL
Test: Chemiluminescence DNA binding assay, SoxS
Conditions: E. coli SoxS; DNA binding
PROPERTY MEASURED: pEC50
Numbers only, as −log10 of the molar value.

Study these solved cases before continuing.
Which measured pEC50 value corresponds to O=C(Nc1ccc(-c2nc3ccc([N+](=O)[O-])cc3n2O)cc1)c1cccc(Cl)c1 ?
5.31

Same for O=[N+]([O-])c1ccc2nc(-c3ccc(-c4ccccc4)o3)n(O)c2c1
5.08

Also O=C(Nc1ccc(-c2nc3ccc([N+](=O)[O-])cc3n2O)cc1)c1ccc(F)cc1 ?
5.52

Same read-out for Cc1ccc(C(=O)Nc2ccc(-c3nc4ccc([N+](=O)[O-])cc4n3O)cc2)cc1 ?
5.57

Okay, next one:
Dear colleague, I am looking for the recorded pEC50 of the following compound: CN(C)c1ccc(C(=O)Nc2ccc(-c3nc4ccc([N+](=O)[O-])cc4n3O)cc2)cc1 [ATE]
6.09

* * *

Target: LcrF (VirF) (Yersinia pseudotuberculosis)
Sequence (Q663J0 1-271): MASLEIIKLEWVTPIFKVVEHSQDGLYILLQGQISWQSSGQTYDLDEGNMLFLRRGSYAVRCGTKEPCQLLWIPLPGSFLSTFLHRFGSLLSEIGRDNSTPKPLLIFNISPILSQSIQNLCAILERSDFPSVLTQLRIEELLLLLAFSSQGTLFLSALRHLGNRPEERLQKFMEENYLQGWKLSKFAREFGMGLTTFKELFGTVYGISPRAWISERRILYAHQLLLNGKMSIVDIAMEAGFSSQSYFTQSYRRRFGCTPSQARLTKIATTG
Test: biochemical
PROPERTY MEASURED: EC50 (µM)
Numbers only, in µM.

I have this compound here, Cc1ccc(C(=O)Nc2ccc(-c3nc4ccc([N+](=O)[O-])cc4n3O)cc2)cc1 , and I need its recorded EC50.
15.5

Again, but for Cc1cccc(C(=O)Nc2ccc(-c3nc4ccc([N+](=O)[O-])cc4n3O)cc2)c1
27.5

Please give the result for O=C(/C=C/c1ccc(F)cc1)Nc1ccc(-c2nc3ccc([N+](=O)[O-])cc3n2O)cc1 too.
7.1

Try the compound COc1ccc(C(=O)Nc2ccc(-c3nc4ccc([N+](=O)[O-])cc4n3O)cc2)cc1
18.3

Would you mind doing O=C(Nc1ccc(-c2nc3ccc([N+](=O)[O-])cc3n2O)cc1)c1ccc(F)cc1 as well?
17.7

Same thing, different compound: CN(C)c1ccc(C(=O)Nc2ccc(-c3nc4ccc([N+](=O)[O-])cc4n3O)cc2)cc1 [ATE]
36.5

Provide each entry's EC50 from the list below.
1. O=C(Nc1ccc(-c2nc3ccc([N+](=O)[O-])cc3n2O)cc1)c1cccc(F)c1
2. COc1ccc(/C=C/C(=O)Nc2ccc(-c3nc4ccc([N+](=O)[O-])cc4n3O)cc2)cc1
3. Cc1ccc(/C=C/C(=O)Nc2ccc(-c3nc4ccc([N+](=O)[O-])cc4n3O)cc2)cc1
4. O=C(/C=C/c1ccc(F)cc1F)Nc1ccc(-c2nc3ccc([N+](=O)[O-])cc3n2O)cc1

1: 29; 2: 5.1; 3: 0.8; 4: 2.2

* * *

Target: PqrA (Proteus mirabilis)
Sequence (B4ETM4 entry or part of it): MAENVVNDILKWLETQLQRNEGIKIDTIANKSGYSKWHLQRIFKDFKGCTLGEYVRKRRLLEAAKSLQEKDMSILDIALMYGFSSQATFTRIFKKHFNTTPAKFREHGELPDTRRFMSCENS
Assay: Chemiluminescence DNA binding assay, PqrA
Details: P. mirabilis PqrA
Exercise: for every item that follows, state its recorded pEC50.
Answers are plain numbers, as −log10 of the molar value.

Recorded pEC50 of CN(C)c1ccc(C(=O)Nc2ccc(-c3nc4ccc([N+](=O)[O-])cc4n3O)cc2)cc1 [ATE] , please.
5.85

We next turn to a different molecule, shown below.
Can you look up the measured pEC50 of O=[N+]([O-])c1ccc2nc(-c3ccc(-c4ccccc4)o3)n(O)c2c1 [ARD] for me?
4.87

* * *

Biological target: Rma (Salmonella typhimurium)
Sequence (H9L484 whole entry): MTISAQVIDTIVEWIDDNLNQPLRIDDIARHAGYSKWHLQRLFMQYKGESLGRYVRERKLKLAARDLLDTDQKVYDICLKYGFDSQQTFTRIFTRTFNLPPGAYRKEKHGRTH
Assay: Chemiluminescence DNA binding assay, Rma
For each entry below, report its EC50 value.
Numbers only, in µM.

# get_value(readout='EC50', item= CN(C)c1ccc(C(=O)Nc2ccc(-c3nc4ccc([N+](=O)[O-])cc4n3O)cc2)cc1 [ATE] )
1.8

Could you report EC50 for every entry in the following list?
1. O=[N+]([O-])c1ccc2nc(-c3ccc(-c4ccccc4)o3)n(O)c2c1 [ARD]
2. O=C(Nc1ccc(-c2nc3ccc([N+](=O)[O-])cc3n2O)cc1)c1ccc(F)cc1 [ASU]
3. O=C(Nc1ccc(-c2nc3ccc([N+](=O)[O-])cc3n2O)cc1)c1cccc(Cl)c1 [ASX]

1. 17
2. 4.9
3. 3.5

* * *

Target: MarA (Escherichia coli, UniProt P0ACH5)
Experiment: Selective marker (ccdB) under MarA-activated promoter; cell survival under MarA expression (Example 2)
Assay type: cell-based
Design: key: *: good inhibition of MarA; **: very good inhibition of MarA
Settings: inhibition of MarA; cell survival under conditions of MarA expression
PROPERTY MEASURED: MarA inhibition score (cell survival)

Would you kindly share the measured MarA inhibition score (cell survival) for CSc1nnc2c(n1)OC(c1ccc(I)o1)Nc1ccccc1-2 (centres unmarked) [A] ?
**

Param item: COc1ccc2c(=O)cc(-c3ccccc3)oc2c1 [BA, 7-methoxy-2-phenyl-4H-chromen-4-one]
*

Another compound: CCCCSc1nnc2c(n1)OC(c1ccc(OC)cc1OC)Nc1ccccc1-2 (centres unmarked) [H]
*

Follow-up entry: CCOC(=O)C1=C(C)N=c2s/c(=C/c3ccc(-c4ccc(C)c([N+](=O)[O-])c4)o3)c(=O)n2C1c1ccc(N(C)C)cc1 (centres unmarked) [X]
**

Entry to check: O=c1/c(=C/c2cn(-c3ccccc3)nc2-c2ccc(F)cc2)sc2nc3ccccc3n12 [AM]
**

# batch size: 3; output MarA inhibition score (cell survival) per entry
1. O=C1C=Cc2ccccc2/C1=N\Oc1ccc2noc3c2c1C(=O)c1ccccc1-3 [Z]
2. CSc1cccc(NC(=O)CSc2nnc(-c3ccc4nonc4c3)n2C)c1 [AE]
3. CCOC(=O)C(C(N)=O)C1(O)OC(c2ccc(C)cc2)=CC1=O (centres unmarked) [BC]

1: *; 2: *; 3: *

* * *

For each of the molecules below, state its EC50.
Target: SlyA (Salmonella typhimurium)
Sequence (P40676 whole entry): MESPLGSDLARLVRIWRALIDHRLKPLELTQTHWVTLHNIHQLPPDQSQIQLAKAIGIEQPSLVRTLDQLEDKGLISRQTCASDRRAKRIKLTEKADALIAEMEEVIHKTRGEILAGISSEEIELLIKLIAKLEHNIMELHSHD
Experiment: Chemiluminescence DNA binding assay, SlyA (MarR protein control)
Give bare numbers, in µM.

Consider the worked cases shown below.
Returns the measured EC50 for the input molecule. Input: O=C(Nc1ccc(-c2nc3ccc([N+](=O)[O-])cc3n2O)cc1)c1ccc(F)cc1 [ASU]
51

And what about the molecule CN(C)c1ccc(C(=O)Nc2ccc(-c3nc4ccc([N+](=O)[O-])cc4n3O)cc2)cc1 [ATE] ?
14.3

Also, O=C(Nc1ccc(-c2nc3ccc([N+](=O)[O-])cc3n2O)cc1)c1cccc(Cl)c1 [ASX] please.
21.7

Shifting focus to the molecule that follows.
Suppose we examine the molecule O=[N+]([O-])c1ccc2nc(-c3ccc(-c4ccccc4)o3)n(O)c2c1 [ARD] ; what EC50 value has been reported?
11.9
